- target system: Virulence sensor histidine kinase PhoQ (Salmonella typhimurium (strain LT2 / SGSC1412 / ATCC 700720)) (UniProt P0DM80)
- Sequence (whole entry): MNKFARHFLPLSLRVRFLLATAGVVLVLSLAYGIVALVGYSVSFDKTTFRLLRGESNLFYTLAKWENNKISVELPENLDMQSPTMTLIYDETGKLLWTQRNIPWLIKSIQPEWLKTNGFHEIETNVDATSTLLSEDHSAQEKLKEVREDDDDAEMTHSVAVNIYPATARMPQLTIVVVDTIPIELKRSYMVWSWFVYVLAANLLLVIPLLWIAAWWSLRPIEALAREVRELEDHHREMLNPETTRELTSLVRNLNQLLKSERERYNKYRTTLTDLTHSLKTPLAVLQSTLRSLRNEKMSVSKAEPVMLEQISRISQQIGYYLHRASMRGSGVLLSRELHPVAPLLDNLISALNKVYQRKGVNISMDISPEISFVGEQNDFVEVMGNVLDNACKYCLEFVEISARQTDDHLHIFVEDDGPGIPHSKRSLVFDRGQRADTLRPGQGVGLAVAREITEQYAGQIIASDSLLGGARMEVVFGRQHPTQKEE
- test name: Activation of PhoQ in Salmonella enterica serovar Typhimurium CS102 expressing PhoN fusion protein assessed as initiation of acid phosphatase reporter enzyme expression at 1 ug/ml in presence of 1 mM magnesium
- assay context: Salmonella enterica subsp. enterica serovar Typhimurium
Activity calls are given as the source filed them. No cut-off for these calls is given here. Where a SMILES comes first, the peptide text is derived from it.
Write down one outcome, taken from yes (active), no (inactive)

Answered examples (2):
Exam item: Would you mind telling me which call this test gave CC[C@H](C)[C@H](NC(=O)[C@H](CCCNC(=N)N)NC(=O)[C@H](CCCNC(=N)N)NC(=O)[C@H](CC(C)C)NC(=O)[C@@H](N)CCCNC(=N)N)C(=O)N[C@H](C(=O)N[C@H](C(=O)N[C@H](C(=O)N[C@@H](CCCNC(=N)N)C(=O)N[C@H](C(=O)N[C@@H](C)C(=O)N[C@@H](CCCNC(=N)N)C(N)=O)C(C)C)[C@@H](C)CC)C(C)C)C(C)C (H-RLRRIVVIRVAR-NH2) ?
Marked response: no

Exam item: Now give it for CC[C@H](C)[C@H](NC(=O)[C@H](CCCNC(=N)N)NC(=O)[C@H](C)NC(=O)[C@H](CC(C)C)NC(=O)[C@@H](N)CCCNC(=N)N)C(=O)N[C@H](C(=O)N[C@H](C(=O)N[C@H](C(=O)N[C@@H](CCCNC(=N)N)C(=O)N[C@H](C(=O)N[C@@H](C)C(=O)NCC(N)=O)C(C)C)[C@@H](C)CC)C(C)C)C(C)C (H-RLARIVVIRVAG-NH2) too.
Marked response: yes

Could you now consider this next compound?
Exam item: Could you check what this test reported for CC[C@H](C)[C@H](NC(=O)[C@H](CCCCN)NC(=O)[C@@H](NC(=O)[C@@H](NC(=O)[C@H](CCCNC(=N)N)NC(=O)[C@H](C)NC(=O)[C@H](CC(C)C)NC(=O)[C@@H](N)CCCNC(=N)N)[C@@H](C)CC)C(C)C)C(=O)N[C@@H](CCCNC(=N)N)C(=O)N[C@H](C(=O)N[C@@H](C)C(=O)N[C@@H](CCCNC(=N)N)C(N)=O)C(C)C (H-RLARIVKIRVAR-NH2) ?
Marked response: yes

* * *

- System: Salmonella enterica subsp. enterica
- test name: Antibacterial activity against bacterial sensory kinase PhoP deficient Salmonella enterica serovar Typhimurium CS053 after 16 hrs by modified twofold broth microdilution method
- Format: functional, Salmonella enterica subsp. enterica serovar Typhimurium
- assay context: CS053, 16 h
Where a SMILES comes first, the peptide text is derived from it.
value type: MBC

Below, 2 molecules whose answers are already recorded.
Exam item: Tell me reported MBC for CC(C)C[C@H](NC(=O)[C@H](CCCCN)NC(=O)[C@H](CCC(N)=O)NC(=O)[C@H](CC(N)=O)NC(=O)[C@H](CC(C)C)NC(=O)[C@H](CC(=O)O)NC(=O)[C@H](CCC(=O)O)NC(=O)[C@@H]1CCCN1C(=O)[C@@H](NC(=O)[C@H](C)NC(=O)CN)[C@@H](C)O)C(=O)N[C@@H](CO)C(N)=O (H-GATPEDLNQKLS-NH2) , tested with Salmonella enterica subsp. enterica.
Marked response: > 500 µg/mL

Exam item: Next record, please: CC[C@H](C)[C@H](NC(=O)[C@H](CCCCN)NC(=O)[C@@H](NC(=O)[C@@H](NC(=O)[C@H](CCCNC(=N)N)NC(=O)[C@H](C)NC(=O)[C@H](CC(C)C)NC(=O)[C@@H](N)CCCNC(=N)N)[C@@H](C)CC)C(C)C)C(=O)N[C@@H](CCCNC(=N)N)C(=O)N[C@H](C(=O)N[C@@H](C)C(=O)N[C@@H](CCCNC(=N)N)C(N)=O)C(C)C (H-RLARIVKIRVAR-NH2)
Marked response: 13.3 µg/mL

Further cases:
Exam item: Please state recorded MBC (tested on Salmonella enterica subsp. enterica) of CC[C@H](C)[C@H](NC(=O)[C@H](CCCNC(=N)N)NC(=O)[C@H](Cc1c[nH]c2ccccc12)NC(=O)[C@H](CCCNC(=N)N)NC(=O)[C@@H](N)CCCNC(=N)N)C(=O)N[C@H](C(=O)N[C@H](C(=O)N[C@H](C(=O)N[C@@H](CCCNC(=N)N)C(=O)N[C@H](C(=O)N[C@@H](CCCNC(=N)N)C(=O)N[C@@H](CCCNC(=N)N)C(N)=O)C(C)C)[C@@H](C)CC)C(C)C)C(C)C (H-RRWRIVVIRVRR-NH2)
Marked response: 6.4 µg/mL

* * *

- Tested on: Salmonella enterica subsp. enterica
- test name: Antibacterial activity against bacterial sensory kinase PhoQ deficient Salmonella enterica serovar Typhimurium CS009 after 16 hrs by modified twofold broth microdilution method
- Format: functional, Salmonella enterica subsp. enterica serovar Typhimurium
- assay context: CS009, 16 h
Where a SMILES comes first, the peptide text is derived from it.
value type: MBC (µg/mL)
// return numeric value only (unit: µg/mL, not printed)

Exam item: Hello, I am looking for reported MBC with Salmonella enterica subsp. enterica for CC[C@H](C)[C@H](NC(=O)[C@H](CCCNC(=N)N)NC(=O)[C@H](C)NC(=O)[C@H](CC(C)C)NC(=O)[C@@H](N)CCCNC(=N)N)C(=O)N[C@H](C(=O)N[C@H](C(=O)N[C@H](C(=O)N[C@@H](CCCNC(=N)N)C(=O)N[C@H](C(=O)N[C@@H](C)C(=O)NCC(N)=O)C(C)C)[C@@H](C)CC)C(C)C)C(C)C (H-RLARIVVIRVAG-NH2) . Could you help?
Marked response: 8.6

For the next question, use this molecule.
Exam item: Look up MBC with Salmonella enterica subsp. enterica for this molecule: CC[C@H](C)[C@H](NC(=O)[C@H](CCCNC(=N)N)NC(=O)[C@H](CCCNC(=N)N)NC(=O)[C@H](CC(C)C)NC(=O)[C@@H](N)CCCNC(=N)N)C(=O)N[C@H](C(=O)N[C@H](C(=O)N[C@H](C(=O)N[C@@H](CCCNC(=N)N)C(=O)N[C@H](C(=O)N[C@@H](C)C(=O)N[C@@H](CCCNC(=N)N)C(N)=O)C(C)C)[C@@H](C)CC)C(C)C)C(C)C (H-RLRRIVVIRVAR-NH2)
Marked response: 4.2

* * *

- target system: Virulence sensor histidine kinase PhoQ (Salmonella typhimurium (strain LT2 / SGSC1412 / ATCC 700720))
- test name: Activation of PhoQ in Salmonella enterica serovar Typhimurium CS102 expressing PhoN fusion protein assessed as initiation of acid phosphatase reporter enzyme expression at 1 ug/ml in presence of 1 mM magnesium
- assay context: Salmonella enterica subsp. enterica serovar Typhimurium
Activity calls are given as the source filed them. The rule behind the calls is not given here. Where a SMILES comes first, the peptide text is derived from it.
Hi! Could you answer with just one of these? active, inactive

Solved cases below.
Exam item: Any idea what this test logged for CC[C@H](C)[C@H](NC(=O)[C@H](CCCNC(=N)N)NC(=O)[C@H](Cc1c[nH]c2ccccc12)NC(=O)[C@H](CCCNC(=N)N)NC(=O)[C@@H](N)CCCNC(=N)N)C(=O)N[C@H](C(=O)N[C@H](C(=O)N[C@H](C(=O)N[C@@H](CCCNC(=N)N)C(=O)N[C@H](C(=O)N[C@@H](CCCNC(=N)N)C(=O)N[C@@H](CCCNC(=N)N)C(N)=O)C(C)C)[C@@H](C)CC)C(C)C)C(C)C (H-RRWRIVVIRVRR-NH2) ?
Marked response: inactive

Exam item: Input CC[C@H](C)[C@H](NC(=O)[C@H](CCCNC(=N)N)NC(=O)[C@H](C)NC(=O)[C@H](CC(C)C)NC(=O)[C@@H](N)CCCNC(=N)N)C(=O)N[C@H](C(=O)N1CCC[C@H]1C(=O)N[C@H](C(=O)N[C@@H](CCCNC(=N)N)C(=O)N[C@H](C(=O)N[C@@H](C)C(=O)N[C@@H](CCCNC(=N)N)C(N)=O)C(C)C)[C@@H](C)CC)C(C)C (H-RLARIVPIRVAR-NH2)
Marked response: active

Continuing:
Exam item: Lab log entry: CC[C@H](C)[C@H](NC(=O)[C@H](CCCNC(=N)N)NC(=O)[C@H](C)NC(=O)[C@H](CC(C)C)NC(=O)[C@@H](N)CCCNC(=N)N)C(=O)N[C@H](C(=O)N[C@H](C(=O)N[C@H](C(=O)N[C@@H](CCCNC(=N)N)C(=O)N[C@H](C(=O)N[C@@H](C)C(=O)N[C@@H](CCCNC(=N)N)C(N)=O)C(C)C)[C@@H](C)CC)C(C)C)C(C)C (H-RLARIVVIRVAR-NH2) — outcome as called in the assay?
Marked response: active
